targetOfAssay: CD63 large extracellular domain, recombinant (Homo sapiens, UniProt P08962 103-203)
Sequence (P08962 103-203): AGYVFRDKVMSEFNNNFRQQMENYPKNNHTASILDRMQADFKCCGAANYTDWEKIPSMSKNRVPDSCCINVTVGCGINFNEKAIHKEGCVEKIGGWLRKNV
protocolDescription: ELISA; PBS pH 7.4, 2.0 mM MgCl2, 0.02% Tween 20, 100 ug/mL salmon sperm DNA; ELISA 0.5 h; cells at RT 1 h (Methods) or 37 C 30 min (Results)
conditionContext: protein: commercial; tags: C-terminal His; label: biotin (ELISA)

- binder: "TAACCACCCCACCTCGCTCCCGTGACACTAATGCTAATTCCAA (ssDNA) [CD63-2]"
  unitDescriptor: "nM"
  Kd: 78.4
